% Blocking listing for selected binders.
test.target: T1, human chemokine (C-C motif) receptor 8 (CCR8) (human, UniProt P51685 1-355)
T1 construct: also called hCCR8
T1 sequence (P51685 whole entry): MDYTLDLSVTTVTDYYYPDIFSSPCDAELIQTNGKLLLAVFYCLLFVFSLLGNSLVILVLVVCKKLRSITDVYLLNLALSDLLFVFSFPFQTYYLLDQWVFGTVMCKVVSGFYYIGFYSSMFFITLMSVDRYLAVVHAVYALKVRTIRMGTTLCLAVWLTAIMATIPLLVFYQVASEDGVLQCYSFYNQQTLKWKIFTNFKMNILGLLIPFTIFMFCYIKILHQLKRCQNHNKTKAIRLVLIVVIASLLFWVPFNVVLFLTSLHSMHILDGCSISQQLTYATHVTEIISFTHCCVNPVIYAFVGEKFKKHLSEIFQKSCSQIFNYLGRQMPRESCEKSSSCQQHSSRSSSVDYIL
protocol.description: flow cytometry blocking, human PBMC, CD3+ gate; competitor PE-AB7
// note: answer is a bare numeric in %

Recorded result, anti-CCR8 monoclonal antibody AB5 (antibody, V domains shown, Hybridoma monoclonal; also called antibody 5; clone 5) VH: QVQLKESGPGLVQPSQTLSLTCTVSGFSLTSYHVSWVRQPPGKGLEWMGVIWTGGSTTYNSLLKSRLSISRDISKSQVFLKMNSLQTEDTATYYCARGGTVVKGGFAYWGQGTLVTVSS VL: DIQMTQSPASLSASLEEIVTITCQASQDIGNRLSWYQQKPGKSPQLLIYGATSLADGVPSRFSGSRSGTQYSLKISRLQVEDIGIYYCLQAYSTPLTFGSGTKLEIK , % Blocking: -7.14

Recorded result, anti-CCR8 monoclonal antibody AB8 (antibody, V domains shown, Hybridoma monoclonal; also called antibody 8; clone 8) VH: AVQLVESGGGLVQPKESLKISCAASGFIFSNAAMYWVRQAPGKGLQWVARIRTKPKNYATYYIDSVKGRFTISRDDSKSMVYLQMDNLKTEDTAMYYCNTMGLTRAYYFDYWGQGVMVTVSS VL: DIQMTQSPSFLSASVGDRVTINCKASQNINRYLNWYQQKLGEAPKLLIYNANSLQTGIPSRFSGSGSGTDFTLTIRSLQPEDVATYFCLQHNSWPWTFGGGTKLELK , % Blocking: 6.48

Recorded result, anti-CCR8 monoclonal antibody AB11 (antibody, V domains shown, Hybridoma monoclonal; also called antibody 11; clone 11) VH: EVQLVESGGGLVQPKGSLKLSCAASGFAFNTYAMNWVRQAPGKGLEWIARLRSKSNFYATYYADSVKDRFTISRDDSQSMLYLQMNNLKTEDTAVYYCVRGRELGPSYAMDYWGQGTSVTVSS VL: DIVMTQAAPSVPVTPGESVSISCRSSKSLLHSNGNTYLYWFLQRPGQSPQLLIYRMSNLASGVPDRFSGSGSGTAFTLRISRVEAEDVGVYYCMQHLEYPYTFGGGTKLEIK , % Blocking: 2.53

Recorded result, anti-CCR8 monoclonal antibody AB13 (antibody, V domains shown, Hybridoma monoclonal; also called antibody 13; clone 13) VH: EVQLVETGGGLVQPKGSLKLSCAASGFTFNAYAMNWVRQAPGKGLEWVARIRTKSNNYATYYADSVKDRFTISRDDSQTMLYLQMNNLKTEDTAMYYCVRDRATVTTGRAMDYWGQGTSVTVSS VL: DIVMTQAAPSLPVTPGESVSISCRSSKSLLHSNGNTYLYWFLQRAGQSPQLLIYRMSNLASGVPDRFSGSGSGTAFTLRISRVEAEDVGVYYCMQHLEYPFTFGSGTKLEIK , % Blocking: 30.3

Recorded result, anti-CCR8 monoclonal antibody AB10 (antibody, V domains shown, Hybridoma monoclonal; also called antibody 10; clone 10) VH: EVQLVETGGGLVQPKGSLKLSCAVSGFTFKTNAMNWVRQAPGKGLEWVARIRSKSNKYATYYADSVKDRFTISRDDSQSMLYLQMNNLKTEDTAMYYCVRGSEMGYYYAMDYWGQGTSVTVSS VL: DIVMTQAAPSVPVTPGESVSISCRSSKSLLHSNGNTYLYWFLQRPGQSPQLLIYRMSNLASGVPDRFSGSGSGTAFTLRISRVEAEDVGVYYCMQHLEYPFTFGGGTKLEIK , % Blocking: 50.1

Recorded result, anti-CCR8 monoclonal antibody AB7 (antibody, V domains shown, Hybridoma monoclonal; also called antibody 7; clone 7) VH: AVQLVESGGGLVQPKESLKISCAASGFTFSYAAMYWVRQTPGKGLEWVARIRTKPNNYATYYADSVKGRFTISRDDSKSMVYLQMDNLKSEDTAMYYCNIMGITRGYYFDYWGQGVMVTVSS VL: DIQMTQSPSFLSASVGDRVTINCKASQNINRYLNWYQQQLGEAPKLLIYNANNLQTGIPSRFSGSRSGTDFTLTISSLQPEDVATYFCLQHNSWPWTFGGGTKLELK , % Blocking: 83.8

Attribution: patent US20240360228A1
